{"molecule": "Cc1ncoc1C(=O)c1ccccc1", "melting point": "84 to 86 °C"}
{"molecule": "CCOc1ccc(C2=NN(C3CCCC3)C(=O)[C@H]3CCCC[C@@H]23)cc1OCC (relative stereo)", "melting point": "111 to 114 °C"}
{"molecule": "Cc1sc2c(c1C)C(c1ccc(Cl)cc1)=NC(CC(=O)NCc1cccnc1)c1nnc(C)n1-2 (centres undefined)", "melting point": "180 to 183 °C"}
{"molecule": "O=C(O)C(=O)c1cc(Cl)c(OCCOc2ccc3ccccc3c2)c(Cl)c1", "melting point": "108 to 110 °C"}
{"molecule": "CCCCCCCCCCCCc1ccccc1C(SCCC(=O)O)C(=O)O (centres undefined)", "melting point": "44 to 46 °C"}
{"molecule": "COc1ccc(C(=O)Nc2cc(NC(=O)c3ccc(OCCN4CCCC4)cc3)ccc2C)cc1OC", "melting point": "258 to 259 °C"}
{"molecule": "CC1(C)Oc2ccc(C(=O)O)cc2S1", "melting point": "124 to 125 °C"}
{"molecule": "O=[N+]([O-])c1cc2c(NCc3ccc4c(c3)OCO4)nc(-n3ccnc3)nc2s1", "melting point": "245 °C"}
{"molecule": "CCOC(=O)C1=CC(c2cccc(C(F)(F)F)c2)=NN(C(=O)OCC)C1N1CCOCC1 (centres undefined)", "melting point": "128 to 129 °C"}

---

Reported melting point by item:

{"compound": "C#Cc1cc(Nc2ncnc3cnc(F)cc23)ccc1F", "melting point": "223 to 226 °C"}
{"compound": "CCCc1c(OCCCCCOc2ccc3nc(CCC(=O)OCC)ccc3c2CCC(=O)OCC)ccc2c1OCCC2=O", "melting point": "59 to 61 °C"}
{"compound": "CCCCN(CCCC)C(=O)CN1CC(c2ccc3c(c2)OCO3)C(C(=O)O)C1c1ccncc1 (stereo not given)", "melting point": "131 to 132 °C"}
{"compound": "Nc1nc(-n2cc(C(=O)O)c(=O)c3cc(F)c(F)c(Cl)c32)ccc1F", "melting point": "232 to 235 °C"}
{"compound": "Cc1nc(C(F)(F)F)c(C(=O)Nc2ccccc2-c2cc(F)c(F)c(F)c2)s1", "melting point": "148 to 152 °C"}
{"compound": "O=C1OC(=O)c2c3ccccc3cc3cccc1c23", "melting point": "289 to 290 °C"}
{"compound": "O=c1[nH]c(C2CC2)nc2c1cnn2-c1ncc(C(F)(F)F)cc1Cl", "melting point": "239 °C"}
{"compound": "COc1ccc(-c2cc(=Nc3c(C)cc(C)cc3C)n(C)c3nnnn23)cc1OC", "melting point": "198 to 200 °C"}
{"compound": "COc1ccc(C(=O)Cc2c(Cl)cncc2Cl)c2cc(C(=O)N3CCN(C)CC3)oc12", "melting point": "160 to 161 °C"}
{"compound": "CCC(CC)Nc1cc(C)nc(Oc2c(C)cc(C)cc2C)c1C(=O)OC", "melting point": "98 to 102 °C"}
{"compound": "O=C(O)CN1C(=O)C(=CC2CCCCC2)SC1=S", "melting point": "191 to 193 °C"}
{"compound": "COC(=O)C1=C(Nc2ccccc2N)CSC1", "melting point": "101 °C"}
{"compound": "CC(=O)N1CCc2c(c3ccc(-n4ccc(OCc5ccccc5)cc4=O)nc3n2C)C1", "melting point": "206 to 208 °C"}
{"compound": "Cc1ccc(S(=O)(=O)N(CCN=[N+]=[N-])CCN=[N+]=[N-])cc1", "melting point": "47 to 48 °C"}
{"compound": "Nc1ccc(NCC(F)(F)F)c([N+](=O)[O-])c1", "melting point": "104 to 106 °C"}
{"compound": "CN(c1ccc(S(C)(=O)=O)cc1)S(=O)(=O)c1cccc(NC(=O)c2ccc(Br)cc2)c1", "melting point": "216 to 218 °C"}
{"compound": "CC1C(=O)Nc2cccc3c2N1C(=O)C3c1ccccc1 (stereo not given)", "melting point": "208 to 211 °C"}
{"compound": "Nc1ccc(C2=NN=C(c3ccccn3)N(C(=O)c3ccccc3)N2)nc1", "melting point": "223 to 225 °C"}
{"compound": "CC1OC(=O)c2c(S)cccc21 (stereo not given)", "melting point": "40 °C"}
{"compound": "COC(=O)CNc1cccc(Cl)c1", "melting point": "75 to 76 °C"}
